Data provenance is patent US20090280138A1.

biological target: T1, MHC class I allele A*0101 monomer (human, biotinylated, bound to streptavidin-coated plate); assay: iTopia, multiparametric iScore
T1 construct: placeholder peptide and b2M removed, then reconstituted with test peptide and fresh b2M; also called A1; HLA-A1
parameter: iScore
Give bare numbers.

The examples below pair each entry with its known result.
                              binder  parameter  test_result
0  NNPWVCDCH [5T4 9-mer peptide 147]     iScore            0
1  KWMHNIRDA [5T4 9-mer peptide 192]     iScore            0
2  LIGAIFLLV [5T4 9-mer peptide 183]     iScore            0

Provide the reported iScore of each entry below, same order.
1. MRNRVLLEL [5T4 9-mer peptide 165]
2. RDHMEGYHY [5T4 9-mer peptide 197]
3. NRVLLELNS [5T4 9-mer peptide 166]
4. LKETEVVQG [5T4 9-mer peptide 155]
5. RNLTHLESL [5T4 9-mer peptide 128]

Result:
[0, 0, 0, 0, 0]
